The entries below are paired with their reported furin cleavage Z-score.
Molecular target: furin, P09958;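 also: purified furin at 1:10 enzyme:substrate in 50 mM HEPES pH 7.5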
Sequence (P09958 whole entry): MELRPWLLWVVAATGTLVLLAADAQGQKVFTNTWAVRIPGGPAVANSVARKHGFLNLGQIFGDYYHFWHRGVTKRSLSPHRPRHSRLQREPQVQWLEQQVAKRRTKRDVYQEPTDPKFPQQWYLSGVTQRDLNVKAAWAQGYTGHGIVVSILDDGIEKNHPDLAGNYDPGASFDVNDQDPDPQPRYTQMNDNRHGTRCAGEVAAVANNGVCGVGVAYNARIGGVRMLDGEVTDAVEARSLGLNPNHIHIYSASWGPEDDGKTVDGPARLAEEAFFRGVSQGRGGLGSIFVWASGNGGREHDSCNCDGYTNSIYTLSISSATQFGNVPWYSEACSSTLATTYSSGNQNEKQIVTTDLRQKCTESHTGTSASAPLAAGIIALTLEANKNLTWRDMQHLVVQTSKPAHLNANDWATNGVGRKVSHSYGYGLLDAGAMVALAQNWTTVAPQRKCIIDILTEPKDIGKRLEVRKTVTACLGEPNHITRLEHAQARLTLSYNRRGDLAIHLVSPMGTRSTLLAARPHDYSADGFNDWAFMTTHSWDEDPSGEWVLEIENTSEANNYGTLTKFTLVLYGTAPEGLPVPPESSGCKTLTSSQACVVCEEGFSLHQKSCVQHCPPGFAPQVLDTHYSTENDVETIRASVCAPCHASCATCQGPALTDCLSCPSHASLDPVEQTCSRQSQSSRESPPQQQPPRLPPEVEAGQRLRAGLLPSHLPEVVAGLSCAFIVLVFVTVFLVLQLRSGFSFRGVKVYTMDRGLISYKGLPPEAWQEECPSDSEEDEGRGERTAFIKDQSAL
Assay: furin cleavage Z-score vs untreated control; higher = more cleavage, active = 3.5 or more, inactive = 1 or less, 8 variable residues between constant flanks
Conditions: 7.5 min
This is one part of the list. How many sequences the whole screen found active is unknown.
Measured Endpoint: furin cleavage Z-score

item_sequence="CARSADGRRFAGNASASA [FS-1654]" reading=-0.463
item_sequence="CARSKRDYTPAGNASASA [FS-1928]" reading=6.07
item_sequence="CALAYGLRSKAGNASASA [TR9]" reading=-0.353
item_sequence="CAKDYRRIRFAGNASASA [FS-173]" reading=0.143
item_sequence="CAKLEVVTSTAGNASASA [HC2274]" reading=0.95
item_sequence="CAGEPGDPDLAGNASASA [HC1357]" reading=-1.27
item_sequence="CAKKQRSRRNAGNASASA [FS-1219]" reading=9.72
item_sequence="CATYQRHYRNAGNASASA [FS-512]" reading=1.23
item_sequence="CAAATLGFGAAGNASASA [HC790]" reading=-0.962
item_sequence="CAQCCDLDPQAGNASASA [HC1491]" reading=0.144
item_sequence="CAPRARAARRAGNASASA [FS-1550]" reading=4.8
item_sequence="CARSGRDSGYAGNASASA [FS-2303]" reading=-0.464
item_sequence="CARSKRDSTYAGNASASA [FS-3169]" reading=6.51
item_sequence="CADGGRVSRSAGNASASA [FS-223]" reading=3.4
item_sequence="CANLLPAILSAGNASASA [HC1101]" reading=-0.111
item_sequence="CAGENLYFQSAGNASASA [TV1]" reading=-1.03
item_sequence="CASTPCSALLAGNASASA [HC2545]" reading=0.599
item_sequence="CAGIMHTRCHAGNASASA [HC1172]" reading=1.75
item_sequence="CAITSRIIRSAGNASASA [FS-1217]" reading=9.87
item_sequence="CAILTRRRRFAGNASASA [FS-1347]" reading=8.01
item_sequence="CARSKRYVHLAGNASASA [FS-2381]" reading=2.83
item_sequence="CAGLRRRRRFAGNASASA [FS-531]" reading=7.13
item_sequence="CALTLSPYYKAGNASASA [HC575]" reading=-0.934
item_sequence="CARRARQARRAGNASASA [FS-1071]" reading=-0.692
item_sequence="CARSKRPSTDAGNASASA [FS-2606]" reading=-0.273
item_sequence="CARSKRDEKLAGNASASA [FS-2810]" reading=3.32
item_sequence="CAMNSRKGRYAGNASASA [FS-1237]" reading=1.23
item_sequence="CARSKKPKGLAGNASASA [FS-3082]" reading=0.217
item_sequence="CAITNRPPRSAGNASASA [FS-1216]" reading=2.7
item_sequence="CAIYGACYSIAGNASASA [HC1594]" reading=0.0718

Data provenance: the supplement of paper PMC3545927
